Please respond with reported inhibition for every item in the list.
Biological target: Protein kinase C beta type (Homo sapiens) (UniProt P05771);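 further: GSK PKIS screen, average inhibition of the PKC-beta2 splice variant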
Sequence (P05771 2-671 limits assumed): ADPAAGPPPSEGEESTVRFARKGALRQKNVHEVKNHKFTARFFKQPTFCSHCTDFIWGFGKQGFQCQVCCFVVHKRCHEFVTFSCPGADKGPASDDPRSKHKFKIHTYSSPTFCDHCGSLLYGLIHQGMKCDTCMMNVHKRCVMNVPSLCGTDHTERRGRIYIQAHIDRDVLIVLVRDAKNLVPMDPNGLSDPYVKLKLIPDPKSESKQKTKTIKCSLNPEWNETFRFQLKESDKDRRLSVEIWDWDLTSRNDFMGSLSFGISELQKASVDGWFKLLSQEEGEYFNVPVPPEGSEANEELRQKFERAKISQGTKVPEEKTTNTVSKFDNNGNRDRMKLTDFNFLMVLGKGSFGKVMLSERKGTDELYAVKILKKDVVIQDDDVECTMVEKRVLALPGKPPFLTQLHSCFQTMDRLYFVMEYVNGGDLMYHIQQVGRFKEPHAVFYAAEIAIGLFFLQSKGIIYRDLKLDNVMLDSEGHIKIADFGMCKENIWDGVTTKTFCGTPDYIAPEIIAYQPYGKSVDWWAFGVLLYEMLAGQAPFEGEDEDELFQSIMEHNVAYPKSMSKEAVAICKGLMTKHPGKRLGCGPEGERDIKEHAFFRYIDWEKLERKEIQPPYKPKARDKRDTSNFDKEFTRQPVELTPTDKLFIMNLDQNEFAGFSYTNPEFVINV
Conditions: at 1 µM
Description: GSK_PKIS: PKC-beta2 (splice variant) mean inhibition at 1 uM [Nanosyn]
Please format your answer as a value with the unit trailing.

stdin: Recall and state the measured inhibition for COc1cc(/C=N/Nc2ncnc3[nH]ncc23)ccc1O .
stdout: 4.16%

stdin: Entry COC(=O)Nc1nc2ccc(S(=O)(=O)c3ccc(NC(=O)Nc4cc(C(F)(F)F)ccc4F)cc3)cc2[nH]1 needs its inhibition filled in; supply it.
stdout: 0.07%

stdin: Report measured inhibition; entry is COc1cc(N2CCN(C(C)C)CC2)ccc1Nc1nc(Nc2ccc(F)cc2C(N)=O)c2cc[nH]c2n1
stdout: 5.72%

stdin: Give the value of inhibition reported for the following: COc1cc2ncn(-c3cc(OCc4ccccc4C(F)(F)F)c(C(=O)N(C)C)s3)c2cc1OC
stdout: 0.09%

stdin: Find the measured inhibition of c1cc(-c2cnn3nc(N4CCOCC4)ccc23)nc(NC2CC2)n1 and report it.
stdout: 1.89%

----------
Molecular target: MAP kinase-interacting serine/threonine-protein kinase 2 (Homo sapiens) (UniProt Q9HBH9)
Sequence (Q9HBH9 whole entry, looked up): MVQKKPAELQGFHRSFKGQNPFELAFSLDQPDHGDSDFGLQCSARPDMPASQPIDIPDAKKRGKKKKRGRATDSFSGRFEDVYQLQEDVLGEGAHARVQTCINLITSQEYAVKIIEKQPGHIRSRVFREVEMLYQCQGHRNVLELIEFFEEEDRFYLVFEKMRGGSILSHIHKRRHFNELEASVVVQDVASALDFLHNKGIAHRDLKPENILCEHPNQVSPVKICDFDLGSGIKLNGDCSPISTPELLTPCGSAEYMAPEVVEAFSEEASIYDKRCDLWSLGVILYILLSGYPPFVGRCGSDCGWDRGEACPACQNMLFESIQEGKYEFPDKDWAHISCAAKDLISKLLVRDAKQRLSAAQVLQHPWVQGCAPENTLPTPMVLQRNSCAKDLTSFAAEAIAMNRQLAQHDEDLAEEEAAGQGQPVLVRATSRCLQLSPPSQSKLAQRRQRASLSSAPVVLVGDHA
Conditions: at 0.1 µM
Description: GSK_PKIS: MNK2 mean inhibition at 0.1 uM [Nanosyn]
For each record, write down the corresponding inhibition.
Your answer is read as %, so omit the unit and give the number.

stdin: Answer with the recorded inhibition of CNC(=O)c1cncc(/C=C/c2ccccc2Cl)c1 only.
stdout: 6.83

stdin: Please give measured inhibition of the following entry: CCc1nn2ncccc2c1-c1ccnc(NC2CC2)n1
stdout: 2.69

stdin: Let me know recorded inhibition for CCn1c(-c2nonc2N)nc2c(C#CC(C)(C)O)ncc(OC3CCNCC3)c21 , thanks.
stdout: 2.54

stdin: Find the measured inhibition of CC(C)(CO)CNC(=O)c1ccc2c(c1)/C(=N/Nc1ccc(S(N)(=O)=O)cc1)C(=O)N2 and report it.
stdout: -0.26

stdin: Quickly give me recorded inhibition for COc1ccc(-c2cc3c(N)ncnc3o2)cc1
stdout: 0.74

stdin: Fill in inhibition for record N#Cc1c(NC(=O)c2ccc(F)cc2)sc2c1CCCC2
stdout: 0.57

stdin: Please give measured inhibition of the following entry: CCn1cc(-c2ccnc3[nH]ccc23)c(-c2cccc(NC(=O)Nc3ccc(OCc4ccccc4)cc3)c2)n1
stdout: -1.1

----------
Give measured inhibition for each item. Keep answers brief.
Molecular target: Glycogen synthase kinase-3 alpha (Homo sapiens) (UniProt P49840);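 further: values are mean inhibition of GSK3A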
Sequence (P49840 2-483 limits assumed): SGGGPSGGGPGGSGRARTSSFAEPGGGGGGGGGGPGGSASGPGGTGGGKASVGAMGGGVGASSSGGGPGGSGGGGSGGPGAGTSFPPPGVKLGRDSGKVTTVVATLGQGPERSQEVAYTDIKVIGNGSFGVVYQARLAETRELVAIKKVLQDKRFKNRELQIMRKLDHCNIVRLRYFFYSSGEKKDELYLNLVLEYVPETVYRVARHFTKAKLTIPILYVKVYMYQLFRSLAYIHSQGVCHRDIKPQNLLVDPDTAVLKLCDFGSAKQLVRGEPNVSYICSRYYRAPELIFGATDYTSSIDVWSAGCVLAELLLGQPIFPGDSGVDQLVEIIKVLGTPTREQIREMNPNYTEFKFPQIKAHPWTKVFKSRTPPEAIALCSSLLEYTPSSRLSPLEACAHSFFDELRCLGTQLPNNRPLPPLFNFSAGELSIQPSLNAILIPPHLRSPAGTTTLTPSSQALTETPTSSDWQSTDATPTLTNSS
Conditions: at 0.1 µM
Give your result in % as a bare value.

stdin: Quick one: give measured inhibition for CS(=O)(=O)CCNCc1coc(-c2ccc3ncnc(Nc4ccc(OCc5ccccc5)cc4)c3c2)c1
stdout: 2.99

stdin: Annotate the compound CCCN(CCS(C)(=O)=O)Cc1ccc(-c2ccc3ncnc(Nc4ccc(OCc5cccc(F)c5)c(Cl)c4)c3c2)o1 with its measured inhibition.
stdout: 7.55

stdin: Give the value of inhibition reported for the following: COc1cc(N2CCN(C(C)C)CC2)ccc1Nc1nc(Nc2ccc(F)cc2C(N)=O)c2cc[nH]c2n1
stdout: 3.88

stdin: Please give measured inhibition of the following entry: COC(=O)c1sc(-n2cnc3cc(OC)c(OC)cc32)cc1OCc1ccccc1C(F)(F)F
stdout: 1.51

----------
Target: Tyrosine-protein kinase Blk (Homo sapiens);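 further: mean percent inhibition of BLK kinase activity, from GSK PKIS kinase inhibitor set profiling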
Details: at 1 µM
measure.name: inhibition (%)
All answers are understood in %, so give the number only.

stdin: Indicate the recorded inhibition value for this molecule: NS(=O)(=O)c1ccc(N/N=C2\C(=O)Nc3ccc4ncccc4c32)cc1
stdout: 60

stdin: Provide one value: measured inhibition of CNC(=O)c1cccc(C#Cc2cncnc2Nc2ccc(OCc3cccc(F)c3)c(Cl)c2)c1
stdout: 1.17

stdin: Determine its reported inhibition: CCN1CCC(CC(=O)Nc2n[nH]c3nnc(-c4cccc(F)c4F)cc23)CC1
stdout: 3.76

stdin: Respond only with inhibition recorded for CCn1c(-c2nonc2N)nc2ccccc21
stdout: 3.02

stdin: Report inhibition, nothing else, for this molecule: NS(=O)(=O)c1ccc(Nc2ncc(-c3ccccc3)o2)cc1
stdout: 4.76

stdin: // Input: COc1ccc(-c2oc3ncnc(N)c3c2-c2ccc(NC(=O)Nc3cc(C(F)(F)F)ccc3F)cc2)cc1 . Output its inhibition only.
stdout: 41.2

stdin: Give the reported inhibition for this molecule. CN1CCC(n2cnc(-c3ccc(F)cc3)c2-c2ccnc(Nc3ccccc3)n2)CC1
stdout: 7.18

stdin: Please report the measured inhibition for CCc1nn2ncccc2c1-c1ccnc(NC2CC2)n1
stdout: 3.32

stdin: Look up inhibition of COc1ccc2c(-c3ccnc(Nc4cccc(OC(F)(F)F)c4)n3)cnn2n1 and report it.
stdout: 4.41

stdin: # return recorded inhibition for entry c1cc(-c2cnn3nc(N4CCOCC4)ccc23)nc(NC2CC2)n1
stdout: 7.51

stdin: Give recorded inhibition. CCNC(=O)O[C@H]1CN[C@H](C#Cc2cc3ncnc(Nc4ccc(OCc5cccc(F)c5)c(Cl)c4)c3s2)C1
stdout: 2.43

stdin: Read the entry Cc1ccc2c(-c3ccnc(Nc4ccccc4)n3)c(-c3ccc(F)cc3)nn2n1 and write its reported inhibition.
stdout: 49

stdin: For the molecule CCn1c(-c2nonc2N)nc2cnc(Oc3cccc(NC(=O)c4ccc(N(C)C)cc4)c3)cc21 , give its measured inhibition value.
stdout: 2.27

stdin: For the molecule Nc1nc(-c2ccc(F)cc2)c(-c2ccc3ncccc3n2)s1 , give its reported inhibition.
stdout: 12.1

stdin: Supply recorded inhibition for COc1cc(N2CCN(C(C)C)CC2)ccc1Nc1nc(Nc2ccc(F)cc2C(N)=O)c2cc[nH]c2n1 here.
stdout: 3.73

stdin: Provide measured inhibition value, entry: Cc1cccc2c1NC(=O)/C2=N\Nc1ccc(S(N)(=O)=O)cc1
stdout: 5.96

stdin: # return recorded inhibition for input COc1ccc(CNC(=O)c2ccc(-c3cc(-c4nnc(C)o4)ccc3C)cc2)cc1
stdout: 0.87

stdin: Report inhibition for COc1cc(Nc2nccc(Nc3ccc4c(C)n[nH]c4c3)n2)cc(OC)c1OC
stdout: 69.3

stdin: Quote inhibition reported for CS(=O)(=O)CCNCc1coc(-c2ccc3ncnc(Nc4ccc(OCc5ccccc5)cc4)c3c2)c1 please.
stdout: 11.5

stdin: Identify the reported inhibition for the following entry. COc1ccc(-c2cc3c(N)ncnc3o2)cc1
stdout: 4.67

stdin: Provide only the value of recorded inhibition for FC(F)(F)c1cccc(-c2nn3ncccc3c2-c2ccnc(Nc3ccc4c(c3)OCCO4)n2)c1
stdout: 45.5

stdin: Give me measured inhibition, please, for this molecule: CCN(CC)S(=O)(=O)c1ccc(OC)c(Nc2ncc(-c3ccccc3)o2)c1
stdout: 31.4

stdin: Identify inhibition associated with the molecule COc1cc2c(cc1Nc1nc(Nc3ccsc3C(N)=O)c3cc[nH]c3n1)N(C(=O)CN(C)C)CCC2(C)C
stdout: 6.26

stdin: Return the recorded inhibition value; entry: NC(=O)c1sc(-n2cnc3ccc(C(F)(F)F)cc32)cc1OCc1ccccc1Br
stdout: 3.45

stdin: // Input: Cc1ccc(O)cc1Nc1ccnc2cc(-c3ccccn3)ccc12 . Output its inhibition only.
stdout: 61.8

stdin: For the molecule CCCN(CCS(C)(=O)=O)Cc1ccc(-c2ccc3ncnc(Nc4ccc(OCc5cccc(F)c5)c(Cl)c4)c3c2)o1 , give its reported inhibition.
stdout: 4

stdin: Fill in inhibition for record Fc1ccc(-c2nn3ccccc3c2-c2ccncc2)cc1
stdout: 2.66

stdin: Find the measured inhibition of COc1ccc(-c2nn3ncccc3c2-c2ccnc(Nc3ccc4c(c3)OCCO4)n2)cc1 and report it.
stdout: 39.5

stdin: Item COc1ccc(-c2cc(-c3c[nH]nc3-c3ccccn3)ccn2)cc1 : provide inhibition
stdout: 3.9

stdin: For the molecule c1ccc(COc2ccc(Nc3ncnc4ccc(-c5ccco5)cc34)cc2)cc1 , report inhibition.
stdout: 3.68

stdin: Give the reported value of inhibition for this record: CCCN1CCC(c2ccc(Nc3nc(Nc4cc(F)ccc4C(N)=O)c4cc[nH]c4n3)c(OC)c2)CC1
stdout: 8.52

stdin: Give the reported value of inhibition for this record: CCOc1ccc2c(-c3ccnc(Nc4cccc(C(F)(F)F)c4)n3)cnn2n1
stdout: 3.22

stdin: State, in one line, measured inhibition of Fc1ccc(-c2nn3ncccc3c2-c2ccnc(Nc3ccc4c(c3)OCCO4)n2)cc1
stdout: 71.2

stdin: Identify the reported inhibition for the following entry. O=C(Nc1n[nH]c2cc(-c3ccc(F)cc3)ccc12)C1CC1
stdout: 7.03

stdin: Quote inhibition reported for Cc1cccc(Nc2ncc(-c3ccccc3)o2)c1 please.
stdout: 6.39

stdin: Report measured inhibition; entry is COC(=O)Nc1nc2ccc(S(=O)(=O)c3ccc(NC(=O)Nc4cc(C(F)(F)F)ccc4F)cc3)cc2[nH]1
stdout: 3.18

stdin: // fetch inhibition given entry CC1=C(C(=O)Nc2cc(Cl)c3[nH]ncc3c2)C(c2ccc(C(F)(F)F)cc2)CC(=O)N1 (stereo not given)
stdout: 33.2

stdin: Consider the molecule CN1CCC(n2cnc(-c3ccc(F)cc3)c2-c2ccnc(N)n2)CC1 . State its measured inhibition.
stdout: 6.71

stdin: Give the reported value of inhibition for this record: COC(=O)Nc1nc2ccc(Oc3ccc(NC(=O)Nc4cccc(Cl)c4)cc3)cc2[nH]1
stdout: 1.79

stdin: Give recorded inhibition. COC(=O)c1sc(-n2cnc3cc(OC)c(OC)cc32)cc1OCc1ccccc1C(F)(F)F
stdout: 22.4
